biological target: T1, PD-1-His (UniProt Q15116 25-167, limits assumed); experiment: competition ELISA: antibody premixed with 4 ug/mL PD1-His, added to coated PDL1-Fc, bound PD1-His detected with anti-His-HRP
T1 construct: also called antigen PD-1-His; not shown: His tag
T1 sequence (Q15116 25-167 limits assumed): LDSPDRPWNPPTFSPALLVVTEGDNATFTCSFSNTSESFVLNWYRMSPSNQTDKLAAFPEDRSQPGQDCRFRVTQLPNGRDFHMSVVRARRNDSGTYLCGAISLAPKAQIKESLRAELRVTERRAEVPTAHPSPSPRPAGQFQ
endpoint label: IC50 (read off the curve)

Given the entry DFPD1-12 full-length anti-PD-1 monoclonal antibody (antibody, human IgG4 S228P, kappa, V domains shown, Expressed in HEK293E cells and purified on protein A) VH: QVQLVESGGGVVQPGRSLRLDCKASGITFSNYGMHWVRQAPGKGLEWVAVIWYDGSKKYYADSVKGRFTISRDNSKNTLFLQMNSLRAEDTAVYYCATNNDYWGQGTLVTVSS VL: DIQMTQSPSSLSASVGDRVTITCRASQSIHNYLDWYQQKPGKAPKLLIYNASTRATGVPSRFSGSGSGTDFTLTISSLQPEDFATYYCQQELHLPLTFGQGTKVEIKR , report its measured IC50 (read off the curve).
~0.05 µg/mL
